// reported EC50 for each item listed
# Tested on: BJ
# measurementProtocol: cytotoxicity toward BJ-TERT fibroblasts, dose response, cell-based, RAS-independent, luminescence (AID 1933)
# Type: functional
# testContext: Homo sapiens
Active and inactive are the calls of the source. No stated cut-off is given here; in the data, actives have a measured EC50 and inactives only a lower limit.
outcomeMeasure: EC50

> print(dat)
                                 chemsmiles                  result
1  COc1ccc(NC(=O)CN(C)S(=O)(=O)c2ccc3nc(O)oc3c2)cc1   > 150 µM (not active)
2  Cc1ccc(-c2cc3c(N=O)c4ccccc4c-3[nH]n2)cc1        6.45 µM (active)
3                N#Cc1ccsc1NC(=O)CCc1ccccc1        15.7 µM (active)
4  CCN1/C(=C/C=C/c2oc3ccc(-c4ccccc4)cc3[n+]2CC)Oc2ccc(-c3ccccc3)cc21  1.63 µM (inconclusive)
5  CN1CCN(C(=O)/C=C/c2ccc([N+](=O)[O-])o2)CC1        44.6 µM (active)
6    NC(=O)N/N=C/c1cn(-c2ccccc2)nc1-c1cccs1        19.4 µM (active)
7            O=[N+]([O-])c1cnc(Sc2ccncn2)s1        2.21 µM (active)
